experiment: Pharmacokinetic evaluation in mice; type: in vivo, C57BL/6N or CD-1 male mice; details: male, CD-1, mouse, plasma, intravenous injection 2 mg/kg, experimental operation B, fasted overnight, read-out: Apparent volume of distribution
Structures can show the parent of a compound that is named as a salt.
measured-parameter: Vd (L/kg)
Give bare numbers, in L/kg.

compound | measured-parameter | assay-value
CC(C)(O)c1cc2nc(C3CCC(CN4CCN(CC(=O)Nc5cccc6c5ccc5onc(C7CCC(=O)NC7=O)c56)CC4)CC3)sc2cc1NC(=O)c1cccc(C(F)(F)F)n1 (centres unmarked) [Formate of WX017] | Vd | 2.59

Respond only with Vd recorded for O=C1CCC(c2noc3ccc4c(NC(=O)C(F)(F)C5CCN(CC6CCC(n7cc(NC(=O)c8coc(-c9ccnc(NCC%10CC%10)c9)n8)c(C(F)F)n7)CC6)CC5)cccc4c23)C(=O)N1 (centres unmarked) [Hydrochloride of WX018]
4.39
